Molecular target: T1, human IL4Rα/Fc (human, UniProt P24394 26-232, limits assumed)
T1 construct: also called rh IL4Ra/Fc
T1 sequence (looked up): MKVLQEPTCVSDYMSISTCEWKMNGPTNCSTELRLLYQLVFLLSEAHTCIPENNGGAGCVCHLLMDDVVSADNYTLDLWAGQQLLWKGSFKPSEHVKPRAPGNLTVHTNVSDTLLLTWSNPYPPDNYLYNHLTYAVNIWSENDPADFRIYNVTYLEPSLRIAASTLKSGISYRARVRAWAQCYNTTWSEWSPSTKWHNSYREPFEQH
Assay: ELISA, antigen directly coated, IgG4
parameter: binding result

binder	parameter	reported_measurement
MOR05271 IgG4 (antibody, V domains shown, IgG4) VH: QVQLKESGPALVKPTQTLTLTCTFSGFSLSTSTMGVSWIRQPPGKALEWLAWIYWDDDKDYSTSLKSRLTISKDTSKNQVVLTMTNMDPVDTATYYCARANPDLGYFDYWGQGTLVTVSS VL: DIALTQPASVSGSPGQSITISCTGTSSDLGESNYVSWYQQHPGKAPKVMIYDVNKRPSGVSNRFSGSKSGNTASLTISGLQAEDEADYYCGSYDEEDNVFGGGTKLTVLG	binding result	no binding
MOR05278 IgG4 (antibody, V domains shown, IgG4) VH: QVQLVESGGGLVQPGGSLRLSCAASGFTFSSYGMSWVRQAPGKGLEWVSYIEPKLFWYATFYAASVKGRFTISRDNSKNTLYLQMNSLRAEDTAVYYCARNDFMEPAYFALWGQGTLVTVSS VL: DIELTQPPSVSVAPGQTARISCSGDNLGSYYAYWYQQKPGQAPVGVIYDDSERPSGIPERFSGSNSGNTATLTISGTQAEDEADYYCSSYTYSKNNVFGGGTKLTVLG	binding result	no binding
MOR05281 IgG4 (antibody, V domains shown, IgG4) VH: QVQLKESGPALVKPTQTLTLTCTFSGFSLSTRGVGVSWIRQPPGKALEWLALIYWDEDKYYSTSLKTRLTISKDTSKNQVVLTMTNMDPVDTATYYCARYQSGYYYNNDGWGVDIWGQGTLVTVSS VL: DIQMTQSPSSLSASVGDRVTITCRASQSISSWLNWYQQKPGKAPKLLIYAASSLQSGVPSRFSGSGSGTDFTLTISSLQPEDFATYYCQQYYAFPHTFGQGTKVEIKR	binding result	no binding
